Where do these numbers come from? They come from patent US7989482B2.

System: NCI-H460
Test: Cell profiling, NCI-H460 tumor cell line
Type: cell-based
Details: Homo sapiens; Tumor cell line NCI-H460, origin Lung
valueKind: IC50

compound: COC(=O)c1coc(-c2nc3oc2C24c5ccccc5N[C@H]2Oc2ccc(cc24)C[C@H](NC(=O)[C@@H](O)C(C)C)C(=O)N[C@H]3C(C)C)n1 (stereo partly shown)
result: 245 nM

###

Entries annotated with measured IC50
Test system: A2058 cells
Assay: Cell viability assay (CELL-TITER-GLO) in A2058 cells
Format: cell-based
Conditions: Homo sapiens, A2058, 48 h, A2058 cells, 48 hour treatment, cell viability; read-out: IC50 (μM) A2058

molecule: COC(=O)c1nc(-c2nc3oc2C24c5ccccc5N[C@H]2Oc2ccc(cc24)C[C@H](NC(=O)[C@@H](O)CC(C)C)C(=O)N[C@H]3C(C)C)oc1C (some centres unmarked) [Example 70]
quantityUnit: µM
measurementQualifier: =
IC50: 0.08
//
molecule: COC(=O)c1nc2oc1[C@@]13c4ccccc4NC1Oc1ccc(cc13)C[C@H](NC(=O)[C@@H](O)c1ccccc1)C(=O)N[C@H]2C(C)C (some centres unmarked) [Example 7]
quantityUnit: µM
measurementQualifier: >
IC50: 1
//
molecule: COc1ccc(-c2cnc(-c3nc4oc3[C@@]35c6ccccc6NC3Oc3ccc(cc35)C[C@H](NC(=O)[C@@H](O)C(C)C)C(=O)NC4C(C)C)o2)cc1 (some centres unmarked) [Example 95]
quantityUnit: µM
measurementQualifier: >
IC50: 1
//
molecule: CC(C)[C@H](O)C(=O)N[C@H]1Cc2ccc3c(c2)C2(C4=C(c5ncc(-c6c[nH]c7ccccc67)o5)N=C(O4)[C@H](C(C)C)NC1=O)c1ccccc1N[C@H]2O3 (some centres unmarked) [Example 91]
quantityUnit: µM
measurementQualifier: =
IC50: 0.475
//
molecule: CC(C)[C@H](O)C(=O)N[C@H]1Cc2ccc3c(c2)C2(C4=C(c5nc(C(=O)NC6CCCc7ccccc76)co5)N=C(O4)[C@H](C(C)C)NC1=O)c1ccccc1N[C@H]2O3 (some centres unmarked) [Example 64]
quantityUnit: µM
measurementQualifier: =
IC50: 0.184
//
molecule: CCC(C)(C)C(=O)N[C@H]1Cc2ccc3c(c2)C2(C4=C(c5nc(C(=O)OC)co5)N=C(O4)[C@H](C(C)C)NC1=O)c1ccccc1N[C@H]2O3 (some centres unmarked) [Example 53]
quantityUnit: µM
measurementQualifier: =
IC50: 0.357
//
molecule: COC(=O)c1nc(-c2nc3oc2C24c5ccccc5N[C@H]2Oc2ccc(cc24)CC(NC(=O)[C@@H](O)C(C)C)C(=O)N[C@H]3C(C)C)oc1C (some centres unmarked) [Example 67]
quantityUnit: µM
measurementQualifier: =
IC50: 0.047
//
molecule: COC(=O)[C@@H]1COC(c2nc3oc2C24c5ccccc5N[C@H]2Oc2ccc(cc24)C[C@H](NC(=O)[C@@H](O)C(C)C)C(=O)N[C@H]3C(C)C)=N1 (some centres unmarked) [Example 44]
quantityUnit: µM
measurementQualifier: >
IC50: 1
//
molecule: CC(C)[C@H](O)C(=O)N[C@H]1Cc2ccc3c(c2)C2(C4=C(C(=O)NCC(=O)c5c[nH]c6c(O)cccc56)N=C(O4)[C@H](C(C)C)NC1=O)c1cccc(Br)c1N[C@H]2O3 (some centres unmarked) [Example 33]
quantityUnit: µM
measurementQualifier: >
IC50: 1
//
molecule: CC(C)[C@H](O)C(=O)N[C@H]1Cc2ccc3c(c2)[C@]2(C4=C(C(N)=O)N=C(O4)[C@H](C(C)C)NC1=O)c1ccccc1NC2O3 (some centres unmarked) [Example 31]
quantityUnit: µM
measurementQualifier: >
IC50: 1
//
molecule: COCc1coc(-c2nc3oc2C24c5ccccc5N[C@H]2Oc2ccc(cc24)C[C@H](NC(=O)[C@@H](O)C(C)C)C(=O)N[C@H]3C(C)C)n1 (some centres unmarked) [Example 76]
quantityUnit: µM
measurementQualifier: =
IC50: 0.114
